Consider the following binders; for each one, report its pKd.
- TARGET DESC: T1, cynomolgus monkey PCSK9 (cynomolgus monkey, UniProt A8T662 31-692 (Macaca nemestrina entry), limits assumed)
- T1 construct: also called Cyno PCSK9; cynoPCSK9
- T1 sequence (A8T662 31-692 limits assumed): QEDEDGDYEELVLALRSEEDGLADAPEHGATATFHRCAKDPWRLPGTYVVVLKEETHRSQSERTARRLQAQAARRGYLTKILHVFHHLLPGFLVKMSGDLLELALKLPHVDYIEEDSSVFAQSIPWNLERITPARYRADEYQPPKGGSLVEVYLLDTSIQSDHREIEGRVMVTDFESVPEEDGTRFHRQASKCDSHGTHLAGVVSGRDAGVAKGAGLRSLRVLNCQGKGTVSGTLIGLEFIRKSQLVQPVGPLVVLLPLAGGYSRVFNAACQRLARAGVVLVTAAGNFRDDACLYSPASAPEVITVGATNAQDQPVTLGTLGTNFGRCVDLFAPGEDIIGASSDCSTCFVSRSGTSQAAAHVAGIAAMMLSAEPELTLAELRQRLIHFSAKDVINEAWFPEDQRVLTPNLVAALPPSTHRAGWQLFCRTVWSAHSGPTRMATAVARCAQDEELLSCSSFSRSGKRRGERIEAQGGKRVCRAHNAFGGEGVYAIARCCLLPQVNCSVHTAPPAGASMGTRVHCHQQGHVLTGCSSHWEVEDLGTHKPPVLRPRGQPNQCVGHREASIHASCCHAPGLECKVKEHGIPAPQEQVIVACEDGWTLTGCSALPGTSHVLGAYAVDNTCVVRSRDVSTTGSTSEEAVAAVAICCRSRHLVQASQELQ
- PROTOCOL DETAILS: ProteOn SPR, captured antibody, pH 7.6;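 note: antibodies captured via anti-human Fc on a GLC sensor chip, PCSK9 binding sensorgrams fitted to a 1:1 Langmuir model giving on and off rates, with KD derived from them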
Numbers only, as −log10 of the molar value.

Example binders with recorded pKd:
CL-148489 (antibody, V domains shown, Human antibody with a kappa light chain) VH: EVQLVESGGGLVQPGRSLRLSCTASGFTFADYVMHWVRQTPGKGLEWVSGISWNSYSINYADSVKGRFTISRDNAQNSLYLQMNSLRAEDTALYFCAKDITYDLLTGYNYNYGLDVWGQGTTVTVSS VL: DIVMTQTPLSLSVTPGQPASISCRSSQSLLHSDGKTYLYWYLQKPGQPPQLLIYEVSNRFSGVPDRFSGSGSGTDFTLKISRVEAEDVGLYYCMQSIQLPLTFGGGTKVEIK; 10.30
CL-148219 (antibody, V domains shown, NLT motif in heavy chain framework 3 confirmed N-glycosylated by mass spectrometry, Human antibody, captured through anti-human Fc in the SPR assay) VH: QVHLQESGPGLVKPSETLSLTCTVSGGSISSYYWSWIRQYPGKGLEWIGYISYSGSSNYNPSLKRRVTISRDTSKNQFSLNLTSVIAADTAVYYCARNLMIRGAYGMDVWGQGTTVTVSS VL: DTVMTQSPLSLPVTPGEPASISCRSSQSLLHSNGYNYLDWYLQKAGQSPQLLIYLGSNRASGVPDRFSGSVSGTDFTLKISRVEAEDVGIYYCMQALQTPFTFGPGTKVDIK; 9.53

Please find the next binder below.
binder CL-274698 (antibody, V domains shown, Human antibody with a kappa light chain, derived from a PCSK9 knockout mouse) VH: QVQLQESGPGLVKPSGTLSLTCAVSGGSISSSKWWSWVRQPPGKGLEWIGETHYSGSTNYNPSLKSRVTISVDKSKNQFSLKLRSVTAADTAVYYCARVGATENFWGQGTLVTVSS VL: EIVLTQSPATLSLSPGERATLSCRASQSVFRYLAWYQQKPGQAPRLLIYDASTRATDIPARFSGSGSGTDFTLTISSLEPEDFAVYYCQQRSNWPPTFGQGTKVEIK , pKd observed: 10.01
